biological target: FZD7 receptor of HEK293-TB cells (human, UniProt O75084 33-574); experiment: cell-based or functional assay
Here, each record is paired with measured Reduction in fold potency vs. dimer data.

- Binder: "Ac-SDDLEFWCHVMY-NH2 (also: homodimer via Cys8 disulfide) [dFz7-21Δ2 (Q519)]"
  Value qualifier: "="
  Reduction in fold potency vs. dimer (fold): 1
- Binder: "Ac-LPSDDLEFWCHVMY-NH2 (also: homodimer via Cys10-Cys10 disulfide) [dFz7-21]"
  Value qualifier: "="
  Reduction in fold potency vs. dimer (fold): 1
- Binder: "Ac-LPSDDLEFWCHVMY-NH2 [Fz7-21]"
  Value qualifier: "="
  Reduction in fold potency vs. dimer (fold): 42
- Binder: "Ac-LPSDDLEFWSHVMY-NH2 [Fz7-21S]"
  Value qualifier: ">"
  Reduction in fold potency vs. dimer (fold): 9000
